- measuredOn: p56lck GST-SH2 (lck SH2 domain) (Homo sapiens, UniProt P06239)
- Construct: GST (N)
- Sequence (P06239 127-224 limits assumed): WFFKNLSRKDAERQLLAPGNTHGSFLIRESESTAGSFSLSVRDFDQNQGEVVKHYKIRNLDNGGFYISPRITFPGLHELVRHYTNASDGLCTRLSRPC
- experimentalDetails: Receptor-ligand equilibrium binding constants by surface plasmon resonance (biosensor), lck SH2 domain
- measurementSetup: Table 1, compounds of formula (II)
resultType: pKd
Quick note: pKd values are minus log10 of concentrations in mol/L.

For the compound CCC(=O)N[C@@H](Cc1ccc(CC(=O)O)cc1)C(=O)Nc1c(C)ccn(Cc2ccc(OC)cc2)c1=O , give its reported pKd.
4.85

For the compound COc1ccc(Cn2ccc(C)c(NC(=O)[C@H](Cc3ccc(CC(=O)O)cc3)NC(=O)C3(c4ccccc4)CCCC3)c2=O)cc1 , give its reported pKd.
4.89

For the compound CCc1ccc(Cn2ccc(C)c(NC(=O)C(Cc3ccc(C(C)(C)C(=O)O)cc3)NC(=O)Cc3ccc4ccccc4c3)c2=O)cc1 (stereo not shown) , give its reported pKd.
5.34

For the compound Cc1ccn(CC2(c3ccccc3)CC2)c(=O)c1NC(=O)C(Cc1ccc(C(C)(C)C(=O)O)cc1)NC(=O)Cc1cccc2ccccc12 (stereo not shown) , give its reported pKd.
5.70

For the compound COc1ccc(Cn2ccc(C)c(NC(=O)[C@H](Cc3ccc(NC(=O)C(=O)O)cc3)NC(=O)Cc3csc(-c4cnccn4)n3)c2=O)cc1 , give its reported pKd.
5.47

For the compound COc1ccc(Cn2ccc(C)c(NC(=O)C(Cc3ccc(C(C)(C)C(=O)O)cc3)NC(=O)C(C)(C)c3ccc(C(F)(F)F)cc3)c2=O)cc1 (stereo not shown) , give its reported pKd.
5.89

For the compound COc1ccc(Cn2ccc(C)c(NC(=O)[C@H](Cc3ccc(CC(=O)O)cc3)NC(=O)Cc3ccccc3)c2=O)cc1 , give its reported pKd.
5.25

For the compound COc1ccc(Cn2ccc(C)c(NC(=O)[C@H](Cc3ccc(C(C)(C)C(=O)O)cc3)NC(=O)Cc3ccccc3C)c2=O)cc1 , give its reported pKd.
6.06

For the compound COc1ccc(Cn2ccc(C)c(NC(=O)[C@H](Cc3ccc(C(C)(C)C(=O)O)cc3)NC(=O)N(C)c3cccc4ccccc34)c2=O)cc1 , give its reported pKd.
6.11

For the compound COc1cccc(Cn2ccc(C)c(NC(=O)[C@H](Cc3ccc(CC(=O)O)cc3)NC(=O)Cc3cccc4ccccc34)c2=O)c1 , give its reported pKd.
4.71

For the compound COc1ccc(Cn2ccc(C)c(NC(=O)[C@H](Cc3ccc(CC(=O)O)cc3)NC(=O)C(C)C)c2=O)cc1 , give its reported pKd.
5.17

For the compound COc1ccc(Cn2ccc(C)c(NC(=O)[C@H](Cc3ccc(NC(=O)C(=O)O)cc3)NC(=O)Cc3ccccc3N(C)C)c2=O)cc1 , give its reported pKd.
5.40

For the compound Cc1ccn(Cc2ccccc2Oc2ccccc2)c(=O)c1NC(=O)C(Cc1ccc(C(C)(C)C(=O)O)cc1)NC(=O)Cc1ccc2ccccc2c1 (stereo not shown) , give its reported pKd.
5.40
